All figures here come from patent US20180016259A1.

- assay comment: Brain blood barrier penetration assay (short oral absorption model with in vitro blood and brain binding)
- Assay type: in vivo
- experimental conditions: rat; male Han Wistar rats, oral 2 mg/kg in 1% methylcellulose; AUCbrain/AUCblood x (fu,brain/fu,blood); read-out: Kp, uu brain

chemical smiles	Kp uu
CNC(=O)CN1CCC(Oc2cc3c(Nc4cccc(Cl)c4F)ncnc3cc2OC)CC1	0.13

====

- assay comment: Brain blood barrier penetration assay (short oral absorption model with in vitro blood and brain binding)
- Type: in vivo
- experimental conditions: male, Han Wistar, rat, in vivo, po, 2 mg/kg, male Han Wistar rats, oral 2 mg/kg in 1% methylcellulose; AUCbrain/AUCblood x (fu,brain/fu,blood); read-out: Kp, uu brain

chemical smiles	Kp uu
COc1cc2ncnc(Nc3cccc(Cl)c3F)c2cc1OC(=O)N1CCN(C)C[C@H]1C	0.8 to 1.3

====

- assay comment: Brain blood barrier penetration assay (short oral absorption model with in vitro blood and brain binding)
- Format: in vivo
- experimental conditions: male, Han Wistar, rat, in vivo, po, 2 mg/kg, male Han Wistar rats, oral 2 mg/kg in 1% methylcellulose; AUCCSF/(AUCblood x fu,blood); read-out: Kp, uu CSF

compound	Kp uu
COc1cc2ncnc(Nc3cccc(Cl)c3F)c2cc1OC(=O)N1CCN(C)C[C@H]1C [Example 1]	1 to 1.3
